Assay: Solubility study of Form A in buffers, water and biorelevant media (suspension shaken 24 hours at 25° C., filtrate by UPLC)
Assay type: physicochemical
Settings: pH 3.0 buffer, 25 °C, pH 3, aqueous buffer, thermodynamic from solid, about 24 hours, individual replicate
metric: solubility at 24 h (µg/mL)
Give bare numbers, in µg/mL.

Entry Cc1cc(N2CC3CCC(C2)C3Nc2nc3n(n2)CCCC[C@H]3c2ccc(F)c(F)c2F)ncn1 (stereo partly shown) [Form A] has what solubility at 24 h?
5480

###

Experiment: Solubility study of Form A in buffers, water and biorelevant media (suspension shaken 24 hours at 25° C., filtrate by UPLC)
Format: physicochemical
Conditions: pH 5.0 buffer, 25 °C, pH 5, aqueous buffer, thermodynamic from solid, about 24 hours, mean ± spread of three replicates
metric: solubility at 24 h (µg/mL)
Numbers only, in µg/mL.

Entry Cc1cc(N2CC3CCC(C2)C3Nc2nc3n(n2)CCCC[C@H]3c2ccc(F)c(F)c2F)ncn1 (stereo partly shown) [Form A] has what solubility at 24 h?
101
